Test system: 782815-120-R-J1-PDC complex spheroid viability
Assay: Anticancer human tumor 782815-120-R-J1-PDC patient-derived colon adenocarcinoma cell line growth inhibition [RAS]
Settings: second compound 0.000949 µM; first compound 0.0316 µM; hits give low values
Recorded Endpoint: viability, T/C (%)
Lab book: enter the figure in %, no units written.

// solved cases for viability, T/C follow
query: Determine its reported viability, T/C: CC(C)n1nc(-c2ccc3oc(N)nc3c2)c2c(N)ncnc21 + CCn1c(-c2cc(N3CCN(C)CC3)cnc2C(C)OC)c2c3cc(ccc31)-c1csc(n1)CC(NC(=O)C1CC1C)C(=O)N1CCCC(N1)C(=O)OCC(C)(C)C2
result: 65.5

query: Determine its reported viability, T/C: CCC(CC)c1cc(NC2CCC(N)C2)n2nccc2n1 (centres undefined) + CCn1c(-c2cccnc2C(C)OC)c2c3cc(ccc31)N1CCOC(CC(NC(=O)C(C(C)C)N(C)C(=O)C3(F)CCN(C(=O)C#CC(C)(C)N(C)C)CC3)C(=O)N3CCCC(N3)C(=O)OCC(C)(C)C2)C1
result: 98.6

query: Determine its reported viability, T/C: C[C@@H](NC(=O)c1ncnc(N)c1Cl)c1ncc(C(=O)Nc2cc(C(F)(F)F)c(Cl)cn2)s1 + CCn1c(-c2cccnc2C(C)OC)c2c3cc(ccc31)N1CCOC(CC(NC(=O)C(C(C)C)N(C)C(=O)C3(F)CCN(C(=O)C#CC(C)(C)N(C)C)CC3)C(=O)N3CCCC(N3)C(=O)OCC(C)(C)C2)C1
result: 106

Further cases:
query: Determine its reported viability, T/C: CC(=O)OC12COC1CC(O)C1(C)C(=O)C(O)C3=C(C)C(OC(=O)C(O)C(NC(=O)OC(C)(C)C)c4ccccc4)CC(O)(C(OC(=O)c4ccccc4)C21)C3(C)C (centres undefined) + CCn1c(-c2cc(N3CCN(C)CC3)cnc2C(C)OC)c2c3cc(ccc31)-c1csc(n1)CC(NC(=O)C1CC1C)C(=O)N1CCCC(N1)C(=O)OCC(C)(C)C2
result: 26

* * *

Overview of reported viability, T/C across a group of compounds:
Test system: 782815-120-R-J1-PDC complex spheroid viability
Experiment: Anticancer human tumor 782815-120-R-J1-PDC cell line growth inhibition [RAS];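 further: spheroids exposed to compounds for 7 days before reading; 100% = DMSO vehicle control viability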
Conditions: second compound 0.316 µM; first compound 3.16 µM; hits give low values
Lab book: enter the figure in %, no units written.

// solved cases for viability, T/C follow
query: Determine its reported viability, T/C: CC(Nc1ccc2c(c1)OCCn1cc(N3C(=O)OCC3C(F)F)nc1-2)C(N)=O (stereo not drawn) + C#Cc1c(F)ccc2cc(O)cc(-c3ncc4c(N5CC6CCC(C5)N6)nc(OCC56CCCN5CC(F)C6)nc4c3F)c12
result: 101

query: Determine its reported viability, T/C: CCC(CC)c1cc(NC2CCC(N)C2)n2nccc2n1 (stereo not drawn) + C#Cc1c(F)ccc2cc(O)cc(-c3ncc4c(N5CC6CCC(C5)N6)nc(OCC56CCCN5CC(F)C6)nc4c3F)c12
result: 43.7

Next compound, please.
query: Determine its reported viability, T/C: NC1c2ccccc2OC12CCN(c1cnc3c(N4CCCc5ncccc54)n[nH]c3n1)CC2 (stereo not drawn) + C=CC(=O)N1CCN(c2nc(OCC3CCCN3C)nc3c(F)c(-c4nc(N)cc(C)c4C(F)(F)F)c(Cl)cc23)C(C)C1
result: 94.3
